Parameter growth: see the listing below.
- Test system: COLO 205 colon
- Experiment notes: NCI-60 one-dose screen, 48 h (100 = growth as untreated, 0 = no growth, -100 = all killed)
- Conditions used: 10 µM unless noted
This is part of a sample that, as a whole, favours compounds with a hit. Of some 83,000 tested, about 20% had one in any assay. The source made the active and inactive calls. Rule for the calls: active = growth percent below 10; inactive = the rest.

compound="COc1cc2nc(Cl)nc(Nc3cccc(C4=Nc5c(N)nc(N)nc5NC(c5ccccc5)C4)c3)c2cc1OC (stereo not drawn)" endpoint_result="99.8% (inactive)"

COc1cc2nc(Cl)nc(Nc3cccc(C4=Nc5c(N)nc(N)nc5NC(c5ccc(F)cc5)C4)c3)c2cc1OC (stereo not drawn) on COLO 205 colon gives growth = 70.7% (inactive)

CC(C)(C)n1nnnc1C(Nc1cccc2c1OCO2)c1cc2cccc3ccc4cccc1c4c32 (stereo not drawn) on COLO 205 colon gives growth = 103% (inactive)

`CC1(C)CC[C@]2(C(=O)O)CC[C@]3(C)C(=CC[C@@H]4[C@@]5(C)CC/C(=N\OCCC#N)C(C)(C)[C@@H]5CC[C@]43C)[C@@H]2C1` on COLO 205 colon gives growth = 111% (inactive)

###

- System: SNB-19 CNS
- Experiment notes: NCI-60 one-dose screen, 48 h (100 = growth as untreated, 0 = no growth, -100 = all killed)
- Conditions used: 10 µM unless noted
This is part of a sample that, as a whole, favours compounds with a hit. Of some 83,000 tested, about 20% had one in any assay.
Endpoint: growth (%)
Provide the reading as a plain figure in %.

Briefly, growth measured for COC(=O)C(Cc1ccccc1)Nc1nc(NC(Cc2ccccc2)C(=O)OC)nc(N2CCOCC2)n1 (stereo not drawn) : 104

Briefly, growth measured for `C=C(C)[C@@H]1CC[C@]2(COP(=O)(OCC)OCC)CC[C@]3(C)[C@H](CC[C@@H]4[C@@]5(C)CCCNC(C)(C)[C@@H]5CC[C@]43C)[C@@H]12` : 58.3

Briefly, growth measured for `O=C(Nc1cccc(Cl)c1)Nc1nc2ccc([N+](=O)[O-])cc2o1` : 19.7

###

- Tested on: ACHN renal
- Experiment notes: NCI-60 one-dose screen, 48 h (100 = growth as untreated, 0 = no growth, -100 = all killed)
- Conditions used: 10 µM unless noted
The panel holds about 83,000 compounds, 20% with a hit somewhere; the sample as a whole holds those more often.
growth strictly less than 60% = true (1). Otherwise false (0).

Answered examples (3):
molecule=COc1cc(/C=C/C(=O)c2ccc(NC(=O)CSc3nnc(-c4ccc(-c5nc6ccc(Cl)cc6[nH]5)cc4)o3)cc2)cc(OC)c1OC study_system="ACHN renal" discrete_label="false (0)"
molecule=CN(C)CCNC(=O)c1ccc(-c2nc3ccc4[nH]ncc4c3c3c2COCC3)cc1 study_system="ACHN renal" discrete_label="false (0)"
molecule=CCCCCc1ccc(S(=O)(=O)Nc2cccc(-c3csc(NC(=O)CCCCCN4CCN(C)CC4)n3)c2)cc1 study_system="ACHN renal" discrete_label="false (0)"

Enquiry: For this molecule, is growth lower than 60%? `Nc1nc(-c2cccc([N+](=O)[O-])c2)c(N=Nc2ccc([N+](=O)[O-])cc2Cl)s1`
Return: true (1)

Enquiry: For this molecule, is growth lower than 60%? `O=c1[nH]c2ccccc2cc1CSc1ccccc1Nc1nccc(-c2ccc(Cl)cc2)n1`
Return: false (0)

Enquiry: For this molecule, is growth lower than 60%? `Cc1nc2ncc(-c3ccc4ncnc(NCc5ccccc5)c4c3)cc2[nH]1`
Return: false (0)

Enquiry: For this molecule, is growth lower than 60%? `O=C(NCCN1CCCC1)c1ccc(-c2nc3ccc4[nH]ncc4c3c3c2CCCC3)cc1`
Return: true (1)

Enquiry: For this molecule, is growth lower than 60%? `CCOc1cccc(-c2nc3sccn3c2-c2ccnc(S(C)(=O)=O)n2)c1`
Return: false (0)

Enquiry: For this molecule, is growth lower than 60%? `Cn1ccnc1C(=O)/C=C/c1ccc(NC(=O)c2c(F)c(F)c(F)c(F)c2F)cc1`
Return: false (0)

Enquiry: For this molecule, is growth lower than 60%? Cc1cc(C)c(N2C(=O)CC(Nc3ccc(Cl)cc3Cl)C2=O)c(C)c1 (configuration not stated)
Return: false (0)

Enquiry: For this molecule, is growth lower than 60%? CCNC(=O)N1CCc2cc(OC)c(OCCc3ccc(OC)nc3)cc2C1c1ccc(OC)cc1C (configuration not stated)
Return: true (1)

Enquiry: For this molecule, is growth lower than 60%? `O=C(CN1CCN(c2cc(=O)n(-c3ccccc3)c3ccccc23)CC1)Nc1nc(-c2ccccc2)cs1`
Return: false (0)

###

- Test system: 786-0 renal
- Experiment notes: NCI-60 one-dose screen, 48 h
- Conditions used: 10 µM unless noted
About 83,000 compounds went through this panel and 20% of them were active in at least one assay; those are over-represented in the sample as a whole. Activity calls are given as the source filed them. How the source made its calls: active means growth percent below 10; inactive means the rest.
Can you answer with just one of these options? class 1 = active, class 0 = inactive

molecule=CCN(CC)c1ccc(NC2=C(Cl)C(=O)c3nc(C)ccc3C2=O)cc1 discrete_label="class 0"
molecule=CC/C(=C/c1cc(OC)ccc1O)c1ccc2cc(OC)ccc2[o+]1 discrete_label="class 0"
molecule=COc1cccc(N2CCN(c3ncnc4c3[nH]c3ccc(F)cc34)C[C@H]2C)c1 discrete_label="class 0"
molecule=NC(N)=Nc1ccc(Oc2cccc(Oc3ccc(Cl)c(C(F)(F)F)c3)c2)cn1 discrete_label="class 1"
molecule="CC1=CC(=O)C2=C(C)CC(OC(=O)CCc3ccccc3)[C@@H]3[C@H](OC(=O)[C@@H]3C)[C@@H]12 (some centres undefined)" discrete_label="class 0"
molecule=CCOc1ccc(NC2=C(Cl)C(=O)c3nc(C)ccc3C2=O)cc1 discrete_label="class 1"
molecule=O=C1[C@H]2Cc3c([nH]c4ccccc34)[C@@H](c3ccc(Br)cc3)N2C(=O)CN1C1CCN(CC2CCCCC2)CC1 discrete_label="class 1"
molecule=O=C(c1ccc(O)c(C(=O)N2Cc3ccc(OCCC[P+](c4ccccc4)(c4ccccc4)c4ccccc4)cc3C2)c1)N1Cc2cccc(F)c2C1 discrete_label="class 0"
molecule=CCN1CCN(C(=O)[C@]23CCC(C)(C)C[C@H]2C2=CC[C@@H]4[C@@]5(C)Cc6c([nH]c7ccccc67)C(C)(C)[C@@H]5CC[C@@]4(C)[C@]2(C)CC3)CC1 discrete_label="class 0"
molecule=Cc1ccc(C(=O)NN2C(=O)/C(=C/C=C/c3ccco3)SC2=S)cc1 discrete_label="class 0"

We now examine a further molecule.
Enquiry: Per the records of this test, what outcome belongs to `Oc1cccc2ccc(-c3nnc(SCc4ccc(O)c5ncccc45)o3)nc12` ?
Return: class 0

###

Parameter growth: see the listing below.
- System: UACC-257 melanoma
- Experiment notes: NCI-60 one-dose screen, 48 h (100 = growth as untreated, 0 = no growth, -100 = all killed)
- Conditions used: 10 µM unless noted
- Procedure: Cells are grown in 96 well plates and exposed to the test compound for 48 hours. Compounds are tested at a single concentration, which is 10^-5 M for most compounds. The reported endpoint is percent growth (GI% or GIPRCNT), where numbers from 0 - 100% represent growth inhibition, and numbers from -100% - 0 represent cell death. For example, a value of 40 represents 60% growth inhibition. A value of 0 means no net growth occurred over the course of the experiment. […]
Compounds without any hit were thinned out: in the full panel of roughly 83,000, 20% have a hit.
Provide the reading as a plain figure in %.

Example entries begin here.
compound=O=C1[C@@H]2Cc3c([nH]c4ccccc34)[C@H](c3c(Cl)cccc3Cl)N2C(=O)CN1C1CCN(CC2CCCCC2)CC1 endpoint=growth unit=% endpoint_result=91.4
compound=Nc1nc(-c2cccc([N+](=O)[O-])c2)c(N=Nc2cccc([N+](=O)[O-])c2)s1 endpoint=growth unit=% endpoint_result=88.6
compound=CS(=O)(=O)Nc1cc(-c2ccc3ncc(C#N)c(N[C@H](CO)c4ccccc4)c3c2)cnc1Cl endpoint=growth unit=% endpoint_result=59.7

Consider the record given below.
COc1cc2nc(Cl)nc(Nc3cccc(C4=Nc5c(N)nc(N)nc5NC(c5ccc(F)cc5)C4)c3)c2cc1OC (centres undefined) on UACC-257 melanoma gives growth = 92.1

###

- System: UACC-62 melanoma
- Experiment notes: NCI-60 one-dose screen, 48 h (100 = growth as untreated, 0 = no growth, -100 = all killed)
- Conditions used: 10 µM unless noted
This is part of a sample that, as a whole, favours compounds with a hit. Of some 83,000 tested, about 20% had one in any assay.
Parameter growth: see the listing below.
Provide the reading as a plain figure in %.

Example entries begin here.
molecule_smiles=CCn1c2ccccc2c2cc(-n3nncc3-c3ccccc3)ccc21 study_system="UACC-62 melanoma" endpoint=growth endpoint_result=35.5
molecule_smiles=COc1ccc(/C=C(/C)c2ccc3ccc(OC)cc3[o+]2)c(O)c1 study_system="UACC-62 melanoma" endpoint=growth endpoint_result=50.9

Consider the record given below.
Briefly, growth measured for `CCCCCc1ccc(S(=O)(=O)Nc2cccc(-c3csc(NC(=O)CN4CCN(C)CC4)n3)c2)cc1` : 92.2
